# experimental system: MERTK (UniProt Q12866)
# Sequence (Q12866 whole entry, looked up): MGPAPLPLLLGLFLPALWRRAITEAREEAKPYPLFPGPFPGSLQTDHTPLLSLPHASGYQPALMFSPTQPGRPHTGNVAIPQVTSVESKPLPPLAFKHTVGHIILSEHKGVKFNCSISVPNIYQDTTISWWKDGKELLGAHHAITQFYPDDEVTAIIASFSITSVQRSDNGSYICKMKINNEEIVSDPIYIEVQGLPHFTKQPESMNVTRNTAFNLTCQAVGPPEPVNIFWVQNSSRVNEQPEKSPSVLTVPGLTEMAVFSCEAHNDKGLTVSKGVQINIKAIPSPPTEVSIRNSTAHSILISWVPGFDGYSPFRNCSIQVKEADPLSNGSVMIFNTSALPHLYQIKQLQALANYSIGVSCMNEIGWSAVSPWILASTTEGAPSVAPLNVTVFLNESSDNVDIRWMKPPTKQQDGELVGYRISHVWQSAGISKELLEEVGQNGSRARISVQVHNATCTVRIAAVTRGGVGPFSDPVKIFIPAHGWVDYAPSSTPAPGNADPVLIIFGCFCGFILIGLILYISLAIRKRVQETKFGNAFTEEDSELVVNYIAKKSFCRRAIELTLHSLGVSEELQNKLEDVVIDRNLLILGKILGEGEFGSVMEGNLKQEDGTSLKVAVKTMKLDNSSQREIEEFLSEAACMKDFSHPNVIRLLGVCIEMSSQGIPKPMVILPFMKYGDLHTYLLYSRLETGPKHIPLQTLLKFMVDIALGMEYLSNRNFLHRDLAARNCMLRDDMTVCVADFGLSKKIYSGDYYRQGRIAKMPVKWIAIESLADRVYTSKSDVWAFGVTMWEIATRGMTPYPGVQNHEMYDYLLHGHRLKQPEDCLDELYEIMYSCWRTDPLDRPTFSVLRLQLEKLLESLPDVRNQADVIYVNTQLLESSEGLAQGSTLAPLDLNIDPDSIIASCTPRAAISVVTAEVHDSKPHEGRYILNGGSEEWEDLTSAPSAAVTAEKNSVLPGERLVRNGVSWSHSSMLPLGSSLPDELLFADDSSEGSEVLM
# experimental protocol: phosphorylation enrichment, bacterial display (enrichment ratio); higher = better substrate or ligand; peptides without Tyr show the background;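 note: 11-residue human phosphosite peptides and single-mutation variants displayed on the E. coli surface, counted by deep sequencing, each peptide's frequency after selection divided by its frequency in the unselected input library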;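 note: frequency after pTyr selection over input frequency; kinase dosed for 20-30% of maximal phosphorylation in three min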
measure name: phosphorylation enrichment
One number for each entry.

[[record]]
input_sequence = "DLDPNYVVSSR [CKM_Y125_L127V]"
experimental_system = "MERTK (UniProt Q12866)"
measure_name = "phosphorylation enrichment"
quantitative_result = 0.453

[[record]]
input_sequence = "DDFDLYGGEKF [PTPN11_Y66_Y62D_YF]"
experimental_system = "MERTK (UniProt Q12866)"
measure_name = "phosphorylation enrichment"
quantitative_result = 0.475

[[record]]
input_sequence = "LVLIKYLPEWT [PSEN1_Y240_F237L]"
experimental_system = "MERTK (UniProt Q12866)"
measure_name = "phosphorylation enrichment"
quantitative_result = 0.56

[[record]]
input_sequence = "GADDSYFTARS [ZAP70_Y492_YF]"
experimental_system = "MERTK (UniProt Q12866)"
measure_name = "phosphorylation enrichment"
quantitative_result = 0.406

[[record]]
input_sequence = "MCDKEYYSVHN [MET_Y1234_Y1230C]"
experimental_system = "MERTK (UniProt Q12866)"
measure_name = "phosphorylation enrichment"
quantitative_result = 0.478


Each of the following entries comes with a recorded value; kindly state phosphorylation enrichment for each.
1. REGAKYVSHDA [ASS1_Y113_G117D]
2. NKVFTYIFIME [SCN4A_Y1074_D1069N]
3. VKGGAYNPVTV [MCCC2_Y145_Y146N]
4. TILEHYRRTHC [MYBPC3_Y1119_V1115I]
5. PGDGEYFTLQI [TP53_Y327_L323G]
6. YTGNTYRVGDT [FN1_Y106]
7. LQLLGYRPVYS [CHST6_Y358]
8. LGEGSYGKVKE [STK11_Y60]

Reply:
1: 0.833; 2: 0.419; 3: 0.471; 4: 0.59; 5: 0.705; 6: 0.389; 7: 0.426; 8: 0.887

Please look at the items below and tell me phosphorylation enrichment for each one, in order.
1. VDGSLYETHPQ [HK1_Y417_K418E]
2. GDPTEYFITAI [IGSF22_Y501_S503I_YF]
3. FDGKDYIALKE [HLA-A_Y147_N151K_YF]
4. KDHPDYKFQAR [SOX10_Y171_P175A_YF]
5. DFLSSYSAVKQ [OAT_Y85_N89K]
6. LREKVYVSLEA [RXRA_Y397_A398V]
7. HFNLTYRILSF [MMP23B_Y95]
8. QSSALYEDCYL [ASS1_Y83_R86C]

Reply:
1: 1.18; 2: 0.482; 3: 0.406; 4: 0.405; 5: 0.273; 6: 0.568; 7: 0.481; 8: 3.43

====

# Tested on: c-Src
# experimental protocol: phosphorylation enrichment, bacterial display (enrichment ratio); higher = better substrate or ligand; peptides without Tyr show the background
Please note: label 1 applies when phosphorylation enrichment is 0.5 or greater, and label 0 applies otherwise.

Some solved entries appear below for comparison.
[[record]]
input_sequence = "FRVAGYKTQGG [TIA1_Y383_E384K_YF]"
discrete_label = "label 0"

[[record]]
input_sequence = "SLNEVYTKNKT [MSH2_Y563_E562V]"
discrete_label = "label 0"

[[record]]
input_sequence = "CTTIHHNFMCN [TP53_Y234_Y234H_YF]"
discrete_label = "label 0"

[[record]]
input_sequence = "GEDPIYVTLEG [RTKtide_2018]"
discrete_label = "label 1"

[[record]]
input_sequence = "IFETDYFRKGG [INSR_Y1189_YF]"
discrete_label = "label 1"


Ask: Say whether LDLPGYCPLRE [CCDC116_Y291] shows phosphorylation enrichment of 0.5 or more.
Reply: label 1

Ask: Decide: phosphorylation enrichment of KLIMECLPFGS [JAK2_Y931_Y931C_YF] >= 0.5?
Reply: label 1

Ask: For this sequence, is measured phosphorylation enrichment 0.5 or higher? ALTRSYIREKV [CYP2C8_Y243]
Reply: label 0

Ask: Please indicate if the recorded phosphorylation enrichment for YTGDIYSNSNL [LZTR1_Y141] meets or exceeds 0.5.
Reply: label 1

Ask: Tell me whether phosphorylation enrichment is at least 0.5 here: YMKEPYIQSRF [HIPK4_Y175_V171M]
Reply: label 1

Ask: I'd appreciate it if you could say whether GQKVAYGGTED [ALDH3A1_Y305_G309E] has phosphorylation enrichment at least equal to 0.5.
Reply: label 0

Ask: Tell me whether phosphorylation enrichment is at least 0.5 here: GRPLSYWLTGC [LYZL6_Y140_F139S]
Reply: label 0

Ask: Given the entry EDSEYYKAFEE [CASQ2_Y179] , answer whether its phosphorylation enrichment meets or surpasses 0.5.
Reply: label 1
